- Tested on: Botryotinia fuckeliana syn. Botrytis cinerea
- TEST: Botryotinia fuckeliana syn. Botrytis cinerea (gray mould), liquid culture growth inhibition
- Assay type: cell-based
- TEST_CONDITIONS: PDB nutrient broth, 24° C., 72 hrs, photometric, vs untreated control
ENDPOINT_NAME: inhibition of growth at 20 ppm

• COc1ccc(CCNC(=O)c2cc(Cl)ncc2Oc2cccc(C)c2)cc1 = ≥ 80%
• CCc1ccc(C(F)CNC(=O)c2cc(Cl)ncc2Oc2cccc(C3CC3)c2)c(F)c1 (stereo not drawn) = ≥ 80%

[ask] Give inhibition of growth at 20 ppm for the following compound: "O=C(NC[C@H](F)c1ccc(Cl)cc1Cl)c1c(Br)cncc1Oc1cccc(C2CC2)c1"
[reply] ≥ 80%

These data points were gathered from patent US20240182420A1.
